For reference, the following pIC50 results for Epidermal growth factor receptor (Homo sapiens, UniProt P00533) were taken from various sources.
pIC50: −log10 of the molar value.
measurement.kind: pIC50

> print(dat)
                                smiles.data                            assayed.target  measurement.kind  measurement.qualifier  observed
1  C=CC(=O)N1CCc2ccc(-c3c(-c4ccc(N5CCN(C)CC5)cc4)[nH]c4nccc(OC)c34)cc21  Epidermal growth factor receptor (Homo sapiens, UniProt P00533)             pIC50                      ≥      7.00
2  NCC1CCN(Cc2ccc(Nc3nc4ncnc(Nc5ccc(F)c(Cl)c5)c4s3)cc2)CC1  Epidermal growth factor receptor (Homo sapiens, UniProt P00533)             pIC50                      =      8.03
3  Clc1cc(Nc2ncnc3nn4ccccc4c23)ccc1OCc1ccccc1  Epidermal growth factor receptor (Homo sapiens, UniProt P00533)             pIC50                      >      7.00
4  Fc1ccc(Nc2ncnc3nc(Nc4ccc(OCCN5CCCC5)cc4)sc23)cc1Cl  Epidermal growth factor receptor (Homo sapiens, UniProt P00533)             pIC50                      =      7.05
